# Test system: UO-31 renal
# assay overview: NCI tumour cell line growth inhibition, 48 h; in the data active = GI50 below about 0.43 µM; inactive = the rest
Outcomes: active, inactive

INSERT INTO measurements (compound, class_name) VALUES
  ('COc1cc(C2=NN(C(C)=O)C(c3cc(OC)c(OC)c(OC)c3)C2)ccc1O (stereo not given)', 'inactive'),
  ('O=C(NN1C(=O)CSC1c1cccc(Cl)c1)C(O)c1ccccc1 (stereo not given)', 'inactive'),
  ('C=C(CN1CCc2c([nH]c3ccccc23)C1)c1ccc(C(=O)Nc2ccccc2N)cc1', 'inactive'),
  ('CC(C)(C)NCC(O)COc1c(Br)c(Br)c(Br)c2c1OC(C)(C)C2 (stereo not given)', 'inactive'),
  ('COc1cccc(CNc2ncnc3c2ncn3C2OC(CO)C(O)C2O)c1O (stereo not given)', 'active'),
  ('COc1ccc(C(=O)c2sc3nc(-c4ccccc4OC)ccc3c2N)cc1OC', 'inactive'),
  ('O=C(CC1(O)C(=O)Nc2ccc(F)cc21)c1ccc(C(=O)NCC2CCC3(CC2)OOC2(CCCCC2)OO3)cc1 (stereo not given)', 'inactive'),
  ('COc1cc(F)ccc1-c1cc(Nc2cc(CS(C)(=N)=O)ccn2)ncc1F (stereo not given)', 'active'),
  ('CCOc1cc(/C=C/C(=O)C(C(=O)/C=C/c2ccc(OC(=O)CNc3nc4ccccc4[nH]3)c(OCC)c2)C(=O)CNc2nc3ccccc3[nH]2)ccc1OC(=O)CNc1nc2ccccc2[nH]1', 'inactive'),
  ('COc1cc([C@@H]2c3cc4c(cc3[C@H](OC(C)=O)[C@H]3COC(=O)[C@@H]23)OCO4)cc(OC)c1OC', 'inactive'),
  ('Cc1cc(NCc2cc(Nc3ccnc4cc(Cl)ccc34)ccc2F)nc(N2CCOCC2)n1', 'inactive'),
  ('COc1cc(OCc2cccc(-c3ccccc3)c2C)cc(OC)c1CN1CCCCC1C(=O)NCCOCCOCCN (stereo not given)', 'inactive'),
  ('Cc1cc(CCl)c(C)cc1CCl', 'inactive'),
  ('O=C(Nc1cccc2[nH]c(C(F)(F)F)nc12)c1cc(Cl)ccc1Cl', 'inactive'),
  ('COc1ccc(C2=NC(=O)NC2c2ccc(OC)cc2)cc1 (stereo not given)', 'inactive'),
  ('Clc1ccc(/C=C/c2ccc3ccccc3n2)cc1', 'inactive'),
  ('COc1ccc(-c2cnnn2-c2nonc2-n2cccc2)cc1OC', 'inactive'),
  ('c1ccc(-c2nc3n(c2-c2ccc4c(c2)OCO4)CCC3)nc1', 'inactive'),
  ('COc1cc(C(=O)N[C@H]2CCc3cc(OC)c(OC)c(OC)c3-c3ccc(SC)c(=O)cc32)cc(OC)c1OC', 'active'),
  ('Cc1ccc(S(=O)(=O)c2nc(-c3ccccc3)oc2S(C)(=O)=O)cc1', 'inactive');
